- Target of assay: Programmed cell death protein 1/Programmed cell death 1 ligand 1 (Homo sapiens, UniProt Q15116+Q9NZQ7)
- Sequence (Q15116 whole entry): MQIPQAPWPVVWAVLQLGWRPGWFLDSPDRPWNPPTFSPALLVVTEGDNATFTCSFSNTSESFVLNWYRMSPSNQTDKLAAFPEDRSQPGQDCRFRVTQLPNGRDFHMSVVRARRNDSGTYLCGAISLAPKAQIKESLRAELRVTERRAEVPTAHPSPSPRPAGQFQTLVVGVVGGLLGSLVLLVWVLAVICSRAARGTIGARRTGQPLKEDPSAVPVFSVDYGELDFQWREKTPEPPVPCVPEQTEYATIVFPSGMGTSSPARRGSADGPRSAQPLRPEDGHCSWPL
- Sequence (Q9NZQ7 whole entry): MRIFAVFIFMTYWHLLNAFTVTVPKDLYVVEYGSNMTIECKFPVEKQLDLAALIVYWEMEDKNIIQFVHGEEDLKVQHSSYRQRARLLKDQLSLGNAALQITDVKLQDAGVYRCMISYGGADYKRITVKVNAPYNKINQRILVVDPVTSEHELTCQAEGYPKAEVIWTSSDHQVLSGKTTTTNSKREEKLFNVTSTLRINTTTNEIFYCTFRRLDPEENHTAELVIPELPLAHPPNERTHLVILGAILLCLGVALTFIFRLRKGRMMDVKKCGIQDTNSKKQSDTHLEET
- Protocol: Inhibition of PD-1/PDL1 interaction (unknown origin) by HTRF assay
IC50 by entry:
Numbers only here, please. The scale is nM.

Illustrative cases are given below, each with its answer.
CC(=O)NCCNCc1ccc(C(=O)N2CCc3c(-c4ccccc4)cccc32)cc1O | 602
O=C(c1cccc(CNCCO)c1)N1CCc2c(-c3ccccc3)cccc21 | 344
Cc1cc(C(=O)N2CCc3c(-c4ccccc4)cccc32)ccc1CNCCO | 212
O=C(c1ccc(CNCCO)cc1)N1CCc2c(-c3ccccc3)cccc21 | 192
COc1cc(C(=O)N2CCc3c(-c4ccccc4)cccc32)ccc1CN1CCC[C@H]1CO | 620
CC(=O)NCCNCc1ccc(C(=O)N2CCc3c(-c4ccccc4)cccc32)cc1 | 622
N#Cc1cccc(COc2cc(C(=O)N3CCc4c(-c5ccccc5)cccc43)ccc2CNCCO)c1 | 572
N#Cc1cccc(COc2cc(C(=O)N3CCc4c(-c5ccccc5)cccc43)ccc2CN[C@H](CO)C(=O)O)c1 | 3280
COc1cc(C(=O)N2CCc3c(-c4ccccc4)cccc32)ccc1CN1CCCC[C@@H]1C(=O)O | 1060
COCCNCc1ccc(C(=O)N2CCc3c(-c4ccccc4)cccc32)cc1OC | 350

# lookup: IC50 of `COc1cc(C(=O)N2CCc3c(-c4ccccc4)cccc32)ccc1CN[C@H](CO)C(=O)O`
278

# lookup: IC50 of `COc1cc(C(=O)N2CCc3c(-c4ccccc4)cccc32)ccc1CNCCNC(C)=O`
220

# lookup: IC50 of `CC(=O)NCCNCc1ccc(C(=O)N2CCc3c(-c4ccccc4)cccc32)cc1C`
457

# lookup: IC50 of `CC(=O)NCCNCc1ccc(C(=O)N2CCc3c(-c4ccccc4)cccc32)cc1OCc1cccc(C#N)c1`
1060

# lookup: IC50 of `COc1cc(C(=O)N2CCc3c(-c4ccccc4)cccc32)ccc1CN1CCC[C@H]1C(=O)O`
1890

# lookup: IC50 of `COc1cc(C(=O)N2CCc3c(-c4ccccc4)cccc32)cc(OC)c1CNCCO`
4770

---

- Target of assay: Programmed cell death protein 1/Programmed cell death 1 ligand 1 (Homo sapiens, UniProt Q15116+Q9NZQ7)
- Protocol: Inhibition of PD-1/PDL1 interaction (unknown origin) by HTRF assay
IC50 by entry:
Numbers only here, please. The scale is µM.

COc1cc(C(=O)N2CCc3c(-c4ccc5c(c4)OCCO5)cccc32)ccc1CNCCNC(C)=O | 0.416

# lookup: IC50 of `Cc1c(-c2ccccc2)cccc1N1Cc2ccc(CNCCO)cc2C1=O`
9.38

# lookup: IC50 of `N#Cc1cccc(COc2cc(C(=O)N3CCc4c(-c5ccccc5)cccc43)ccc2CN2CCCC[C@H]2C(=O)O)c1`
1.33

# lookup: IC50 of `O=C(c1ccc(CNCCO)c(Cl)c1)N1CCc2c(-c3ccccc3)cccc21`
0.353

# lookup: IC50 of `Cc1c(-c2ccccc2)cccc1N1Cc2cc(CNCCO)ccc2C1=O`
7.29
